B1: TPR 5TU (parent)
chain: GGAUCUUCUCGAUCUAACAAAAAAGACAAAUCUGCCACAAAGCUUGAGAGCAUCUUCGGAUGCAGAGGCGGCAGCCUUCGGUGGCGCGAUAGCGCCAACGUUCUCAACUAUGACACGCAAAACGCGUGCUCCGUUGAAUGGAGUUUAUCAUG

- Variants of: B1
- test_name: polymerase ribozyme fitness, log enrichment relative to wild type (log ratio); higher = more active; in vitro selection for triplet polymerase activity
This sample holds only a part of the variants without activity.
This section presents variants with their documented polymerase ribozyme fitness (log ratio) values.
value_kind: polymerase ribozyme fitness (log ratio)

INSERT INTO assay_data (mutation_notation, value_kind, censoring_qualifier, recorded_number) VALUES
  ('C85U G136U G152C', 'polymerase ribozyme fitness (log ratio)', '≤', -4.2),
  ('U55G G70A C129G', 'polymerase ribozyme fitness (log ratio)', '≤', -4.2),
  ('U15G A39U C72U A91U A147U A150C', 'polymerase ribozyme fitness (log ratio)', '≤', -4.2),
  ('A24U C27U C51A G92A A113U', 'polymerase ribozyme fitness (log ratio)', '≤', -4.2),
  ('U45A G92U', 'polymerase ribozyme fitness (log ratio)', '=', -2.75),
  ('A41U G74A C103U C114U U134C', 'polymerase ribozyme fitness (log ratio)', '≤', -4.2),
  ('G34C A49C A52G U61G C87U C95A', 'polymerase ribozyme fitness (log ratio)', '=', -4.12),
  ('A20C A29C C87G A122G G140U', 'polymerase ribozyme fitness (log ratio)', '≤', -4.2),
  ('C75U C85U G86C', 'polymerase ribozyme fitness (log ratio)', '=', -1.49),
  ('G92A G141A', 'polymerase ribozyme fitness (log ratio)', '=', -2.48),
  ('C32G U56A G94A C108U G124C U145A', 'polymerase ribozyme fitness (log ratio)', '≤', -4.2),
  ('C96A U127A', 'polymerase ribozyme fitness (log ratio)', '=', -3.79),
  ('A73C A142U', 'polymerase ribozyme fitness (log ratio)', '≤', -4.2),
  ('C57U G59C C95G C108U U148A', 'polymerase ribozyme fitness (log ratio)', '≤', -4.2),
  ('A40U A47C A89U U134G', 'polymerase ribozyme fitness (log ratio)', '=', -2.3),
  ('A19G C57G G84U', 'polymerase ribozyme fitness (log ratio)', '=', -2.3),
  ('U33G G50A C63G G94A C95G C116U', 'polymerase ribozyme fitness (log ratio)', '≤', -4.2),
  ('C10U G42C G83U A97G G124U G133C', 'polymerase ribozyme fitness (log ratio)', '≤', -4.2),
  ('A17U G124U', 'polymerase ribozyme fitness (log ratio)', '=', -0.693),
  ('C8G G84U G100U C132U U144A', 'polymerase ribozyme fitness (log ratio)', '≤', -4.2),
  ('A20G A40C C72U G92A', 'polymerase ribozyme fitness (log ratio)', '=', -4.04),
  ('A52C G94C A106G', 'polymerase ribozyme fitness (log ratio)', '=', -1.86),
  ('C8U A30U U44A A97G U101G A113G C132U C149G A150U', 'polymerase ribozyme fitness (log ratio)', '≤', -4.2),
  ('G94A G143U', 'polymerase ribozyme fitness (log ratio)', '=', -3.57),
  ('A20U U55A A147C', 'polymerase ribozyme fitness (log ratio)', '=', -2.31),
  ('C85A U134G', 'polymerase ribozyme fitness (log ratio)', '=', -3.6),
  ('C32G A49C C118U', 'polymerase ribozyme fitness (log ratio)', '≤', -4.2),
  ('G59U G88U A121U U127A U134G', 'polymerase ribozyme fitness (log ratio)', '≤', -4.2),
  ('G86A G94C C132U G141C', 'polymerase ribozyme fitness (log ratio)', '≤', -4.2),
  ('A3U A19U C57U G62U C69U C85U C99G U130C G136U U146G', 'polymerase ribozyme fitness (log ratio)', '≤', -4.2),
  ('G59A G92U U104C A121C', 'polymerase ribozyme fitness (log ratio)', '=', -2.09),
  ('C32A G50U U55A C85A', 'polymerase ribozyme fitness (log ratio)', '≤', -4.2),
  ('C87A A91G G152U', 'polymerase ribozyme fitness (log ratio)', '=', -4.13),
  ('A19U A91G C93G U111A A137C', 'polymerase ribozyme fitness (log ratio)', '≤', -4.2),
  ('A16U U31A C38G A41C G62C A120U A142G A147U', 'polymerase ribozyme fitness (log ratio)', '≤', -4.2),
  ('U55A U90C C95U U146C C149A', 'polymerase ribozyme fitness (log ratio)', '≤', -4.2),
  ('C5A U9A A41G C76G A91U G126A G136A', 'polymerase ribozyme fitness (log ratio)', '≤', -4.2);
